Test: NCI Yeast Anticancer Drug Screen. Data for the bub3 strain (AID 167)
Conditions: S. cerevisiae bub3 mutant strain, at 50.0 µM (retest, dose inferred, filed as 5.0), stronger effect = higher value
About 79,000 compounds went through this panel and 15% of them were active in at least one assay; those are over-represented in the sample as a whole.
Entries and their growth inhibition values follow.
OBSERVATION_TYPE: growth inhibition (%)

INSERT INTO results (compound, unit_string, recorded_measurement) VALUES
  ('NC(=O)C(CCc1cccc2ccccc12)c1ccccc1 (centres undefined)', '%', 12),
  ('OCC1CCCCCCCCCCC1', '%', 58),
  ('Cc1ccc2nc(N/N=C/c3cccc(C)n3)cc(C)c2c1', '%', 57),
  ('N#CC(C(=O)CCCC(=O)Nc1cccc([N+](=O)[O-])c1)c1cccc2ccccc12 (centres undefined)', '%', 2);

----------
Experiment: NCI Yeast Anticancer Drug Screen. Data for the mec2-1 strain (AID 157)
Details: S. cerevisiae mec2-1 strain, at 5.0 µM (retest, dose inferred, filed as 0.5)
The panel holds about 79,000 compounds, 15% with a hit somewhere; the sample as a whole holds those more often. The source made the active and inactive calls. No stated cut-off is given here; in the data, active means growth inhibition above about 70%; inactive means the rest.
Outcomes: active, inactive

INSERT INTO results (compound, category_label) VALUES
  ('O=C(Nc1nc2c(ncn2C2CC(OC(=O)c3ccccc3)C(COC(=O)c3ccccc3)O2)c(=O)[nH]1)c1ccccc1 (stereo not drawn)', 'inactive'),
  ('O=[N+]([O-])c1ccc(CSSCc2ccc([N+](=O)[O-])cc2)cc1', 'inactive'),
  ('CC(=O)N(C(C)=O)C1=C2c3ccccc3N(S(=O)(=O)c3ccccc3)C2n2c(=O)n(-c3ccccc3)c(=O)n2C1 (stereo not drawn)', 'inactive'),
  ('COc1cc(/C=C/C(=O)Sc2ccccc2)cc(OC)c1O', 'inactive'),
  ('O=C(O)/C=C/C(=O)NNc1nc2ccccc2s1', 'inactive'),
  ('CCn1c2ccccc2c2ccc(C3C(C(=O)OC)=C(C)NC(C)=C3C(=O)OC)cc21', 'inactive'),
  ('C(CCCCCN1CCCCC1)CCCCN1CCCCC1', 'inactive'),
  ('N#Cc1c(-c2ccc(Cl)cc2)c(C#N)c(=O)n(NS(=O)(=O)c2ccccc2)c1S', 'inactive'),
  ('CCN(CC)C(=S)N=Nc1c(O)[nH]c2ccccc12', 'active'),
  ('C=Cc1cc(N=Nc2ccc([N+](=O)[O-])cc2)ccc1N(C)C', 'inactive'),
  ('CCCCN(CCCC)c1ccc2c(c1)C(O)c1ccccc1-2 (stereo not drawn)', 'inactive'),
  ('COC(=O)CCC(=O)N1C/C(=C\c2ccccc2)C(=O)/C(=C/c2ccccc2)C1', 'inactive'),
  ('O=C(/C=C(\OB(F)F)c1ccccc1)c1ccccc1', 'inactive'),
  ('O=C(O)C1CCC(CC2CC3CCC2C3)CC1 (stereo not drawn)', 'inactive'),
  ('CCc1cccc(C)c1NC(=O)C(=O)CC(=O)c1ccccc1Cl', 'inactive'),
  ('CCCCCCCCCCCCCCCC[NH][Ge]([NH]CCCCCCCCCCCCCCCC)([NH]CCCCCCCCCCCCCCCC)[NH]CCCCCCCCCCCCCCCC', 'active'),
  ('O=C(Nc1cccc(C(F)(F)F)c1)C(Cl)=C(Cl)Cl', 'inactive'),
  ('CN1CCC(/C=C/c2cccc3ccccc23)CN1 (stereo not drawn) (tested in a mixture with another compound)', 'inactive');

----------
Assay: NCI Yeast Anticancer Drug Screen. Data for the rad50 strain (AID 155);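 note: 0% = growth of vehicle-only cultures of the same strain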
Settings: S. cerevisiae rad50 strain growth inhibition; at 5.0 µM (retest, dose inferred, filed as 0.5)
About 79,000 compounds went through this panel and 15% of them were active in at least one assay; those are over-represented in the sample as a whole. Activity calls are given as the source filed them. No stated cut-off is given here; in the data, active means growth inhibition above about 70%; inactive means the rest.
Classes used: active, inactive

INSERT INTO results (compound, category_label) VALUES
  ('Cc1cc(Sc2ccccc2)c2c(C)ccc(C(C)C)cc1-2', 'inactive'),
  ('CCOc1ccc(/C=N\NC(=O)c2ccco2)cc1OCC', 'inactive'),
  ('O=c1[nH]c2ccc([N+](=O)[O-])c(Cl)c2c2ccccc12', 'active'),
  ('CC(=O)Nc1ccc(-c2nnc(SCC(=O)Nc3ccc(Cl)cc3Cl)o2)cc1', 'inactive'),
  ('Oc1cccc2ccncc12', 'inactive'),
  ('N=C1C=CC(=C(c2ccc(N)cc2)c2ccc(N)cc2)C=C1', 'inactive'),
  ('O=[N+]([O-])c1ccc(O)c(C2CCCCC2)c1', 'active'),
  ('CCOC(=O)c1[nH]n(-c2ccccc2)c(=O)c1/C=N/C(=S)N=Nc1c(O)[nH]c2ccccc12', 'inactive'),
  ('CC(=O)N(C)c1ccc(/C=C2\C=Cc3ccccc32)cc1', 'inactive'),
  ('CC[C@@]1(O)C[C@H](OC2CC(N(C)C)C(OC3CC(O)C(OC4CCC(=O)C(C)O4)C(C)O3)C(C)O2)c2c(cc3c(c2O)C(=O)c2c(O)cccc2C3=O)[C@H]1C(=O)OC (stereo not given in full)', 'active'),
  ('COc1cccc2c1C(=O)c1c(O)c3c(c(O)c1C2=O)CC(O)(C(C)=O)CC3OC1OC(COC(C)=O)C(OC(C)=O)C(OC(C)=O)C1OC(C)=O (stereo not given)', 'inactive'),
  ('OC(CN1CCc2ccccc2C1)c1ccc2ccccc2c1 (stereo not given)', 'inactive'),
  ('CSc1cc2c(cc1N)Cc1cc(F)ccc1-2', 'inactive'),
  ('O=C1c2ccccc2C(=O)N1/N=C\c1ccccc1[N+](=O)[O-]', 'inactive'),
  ('COC(=O)N/N=C(/CC1(O)C(=O)Nc2ccccc21)c1ccc(Cl)cc1Cl (stereo not given)', 'inactive'),
  ('O=C(O)CCC(=O)c1ccc2c(c1)CCCC2', 'inactive'),
  ('CCOC(=O)C(Br)C(Br)c1cccc(Cl)c1 (stereo not given)', 'inactive'),
  ('CCS(=O)(=O)OC(C)CCl (stereo not given)', 'inactive'),
  ('Cc1noc(NS(=O)(=O)c2ccc(N=Nc3cc(N=Nc4ccc(S(=O)(=O)Nc5onc(C)c5C)cc4)c4c(NC(=O)C(Cl)Cl)cccc4c3O)cc2)c1C (tested in a mixture with another compound)', 'active'),
  ('c1ccc(N=C2SC3=NCCN3C2=Nc2ccccc2)cc1', 'inactive'),
  ('N#CC(O)C(Br)(Br)Br (stereo not given)', 'inactive'),
  ('Cc1ccc(C2C(O)=C(c3ccccc3)Sc3ccc(C)cc32)cc1 (stereo not given)', 'inactive'),
  ('C=C1CC(Cn2cc(Br)c(=O)[nH]c2=O)(c2ccc(Br)cc2)OC1=O (stereo not given)', 'inactive'),
  ('CCOC(=O)c1cc(Cl)nc2ccc(OC)cc12', 'inactive'),
  ('O=C(O)/C=C/c1ccc2c(c1)CCCC2', 'inactive'),
  ('CC1=C(C(=O)OC(C)C)C(c2ccccc2[N+](=O)[O-])C(C(=O)OC(CO[N+](=O)[O-])CO[N+](=O)[O-])=C(C)N1 (stereo not given)', 'inactive'),
  ('Cc1ccc2sc3ccc(N)cc3c(=O)c2c1', 'inactive'),
  ('NC(=O)NOC(=O)c1ccccc1', 'inactive'),
  ('COc1cc(C2C=C(c3ccccc3)Oc3cc4c(cc32)OCO4)cc(OC)c1OC (stereo not given)', 'inactive'),
  ('CCOC(=O)C1(C#N)C(c2ccccc2)C1(C#N)C#N (stereo not given)', 'inactive');

----------
Test: NCI Yeast Anticancer Drug Screen. Data for the mlh1 rad18 strain (AID 175)
Conditions: S. cerevisiae mlh1 rad18 strain growth inhibition; at 50.0 µM; stronger effect = higher value
The panel holds about 79,000 compounds, 15% with a hit somewhere; the sample as a whole holds those more often.
Each entry gets Not satisfied if its growth inhibition stays under 80%, and Satisfied if its growth inhibition is 80% or above.

INSERT INTO results (compound, category_label) VALUES
  ('Cc1nc(N)sc1N=Nc1ccc(Cl)cc1Cl', 'Satisfied'),
  ('Cc1ccc(/C=C/C(=O)/C=C/c2ccc(C)o2)o1', 'Satisfied'),
  ('CCc1ccc(C)nc1', 'Not satisfied'),
  ('N#C/C(=C1C=C/C(=N/O)c2ccccc2/1)c1ccc(Cl)cc1', 'Not satisfied'),
  ('CCOC(=O)/C(=C\c1cccc([N+](=O)[O-])c1)C(C)=O', 'Satisfied'),
  ('O=C(O)c1ccc2c(O)c3ccccc3c(O)c2c1', 'Satisfied'),
  ('Cc1[nH]c(=O)[nH]c(=O)c1CN(C)Cc1cc(Cl)cc(Cl)c1O', 'Not satisfied'),
  ('O=C1c2ccccc2C(=O)c2ncccc21', 'Satisfied'),
  ('CCCCCCCCCCCC(=O)c1c(O)c2ccccc2oc1=O', 'Not satisfied'),
  ('COc1cccc2c1C(=O)c1c(O)c3c(c(O)c1C2=O)CC(O)(C(C)=O)CC3OC1OC(COC(C)=O)C(OC(C)=O)C(OC(C)=O)C1OC(C)=O (stereo unspecified)', 'Satisfied'),
  ('CCCCCCCCN(CCCCCCCC)C(=O)C(C)O (stereo unspecified)', 'Satisfied'),
  ('[Cl][Pt+2][Cl].[NH-]c1cc2ccccc2cc1[NH-]', 'Not satisfied'),
  ('O=C1NC(c2ccccc2)(c2cccs2)C(=O)N1C1c2ccccc2Oc2ccccc21 (stereo unspecified)', 'Satisfied'),
  ('C[N+]1(c2ccccc2)C=C(c2ccccc2)SC1=S (stereo unspecified)', 'Not satisfied'),
  ('CC(=O)c1c2c(cc3c1CC1(Cc4cc5c(cc4C1)C(=O)CCC5)C3)CCCC2 (stereo unspecified)', 'Not satisfied'),
  ('CC1SC2=NC3=C(c4ccccc4C3=O)C(c3ccc(Cl)cc3)N2C1=O (stereo unspecified)', 'Not satisfied');
